Measured Probability, listed per entry.
# system_name: Dpo4•DNA binary complex (Saccharolobus solfataricus)
# Sequence (Q97W02 1-352): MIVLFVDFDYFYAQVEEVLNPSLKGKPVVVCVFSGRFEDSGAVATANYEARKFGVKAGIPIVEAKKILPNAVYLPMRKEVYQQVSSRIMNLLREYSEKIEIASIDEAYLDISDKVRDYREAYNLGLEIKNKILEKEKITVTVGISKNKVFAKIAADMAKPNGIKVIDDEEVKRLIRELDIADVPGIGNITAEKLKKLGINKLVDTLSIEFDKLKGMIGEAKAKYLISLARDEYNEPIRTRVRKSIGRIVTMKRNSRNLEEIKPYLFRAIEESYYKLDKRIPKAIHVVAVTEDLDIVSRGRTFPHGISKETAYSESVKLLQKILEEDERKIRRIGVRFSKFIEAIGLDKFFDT
# test_details: Substrate specificity assay
# Type: biochemical, Sulfolobus solfataricus
# conditions_used: DNA substrate 18/26-mer-dG^C8-N-ABA; efficiency/sum of efficiencies × 100
Please give the numeric answer without any surrounding text.

Nc1ncnc2c1ncn2[C@H]1C[C@H](O)[C@@H](COP(=O)(O)OP(=O)(O)OP(=O)(O)O)O1	0.01
Cc1cn([C@H]2C[C@H](O)[C@@H](COP(=O)(O)OP(=O)(O)OP(=O)(O)O)O2)c(=O)[nH]c1=O	0.02

**Query** Lab request: please report Probability under test system Dpo4•DNA binary complex (Saccharolobus solfataricus) for Nc1ccn([C@H]2C[C@H](O)[C@@H](COP(=O)(O)OP(=O)(O)OP(=O)(O)O)O2)c(=O)n1
**Result** 99.95

**Query** State its Probability on Dpo4•DNA binary complex (Saccharolobus solfataricus): Nc1nc2c(ncn2[C@H]2C[C@H](O)[C@@H](COP(=O)(O)OP(=O)(O)OP(=O)(O)O)O2)c(=O)[nH]1
**Result** 0.02
